Source of measurements: PubChem BioAssay (Tox21)

tested_on: Estrogen receptor (Homo sapiens)
experiment_summary: qHTS assay to identify small molecule antagonists of the estrogen receptor alpha (ER-alpha) signaling pathway (AID 743069)
details: HEK293 ER-alpha-UAS-bla, beta-lactamase ratio, antagonist mode; series mostly up to 69.4 µM
Activity calls are given as the source filed them. The call rests on the fitted dose curve; in most records, active means well fitted curve in the direction sought with a large enough effect in the signal ratio in the repeat runs (not every such curve was filed as active); inconclusive means weak or mixed curves, or effect the other way; inactive means no such curve, though single readings can be large or run the other way; the % refers to the signal ratio.
Labels: T = active, F = inactive

{"columns": ["molecule", "group"],
 "data": [
  ["CC1CS(=O)(=O)CCN1/N=C/c1ccc([N+](=O)[O-])o1 (stereo not drawn)", "F"],
  ["CO/N=C(\\C(=O)N[C@@H]1C(=O)N2C(C(=O)O)=C(CSc3nnnn3C)CS[C@H]12)c1csc(N)n1", "F"],
  ["O=C(O)c1cc(N=Nc2ccc(O)c(C(=O)O)c2)ccc1O", "F"],
  ["Cc1onc(-c2ccccc2)c1C(=O)N[C@@H]1C(=O)N2[C@@H]1SC(C)(C)[C@@H]2C(=O)O", "F"],
  ["CC(C)C(=O)OCC(=O)[C@@]12O[C@H](C3CCCCC3)O[C@@H]1C[C@H]1[C@@H]3CCC4=CC(=O)C=C[C@]4(C)[C@H]3[C@@H](O)C[C@@]12C", "T"],
  ["CC(CN(C)C)CN1c2ccccc2S(=O)(=O)c2ccccc21 (stereo not drawn)", "F"],
  ["CCOc1ccc(N=C(C)Nc2ccc(OCC)cc2)cc1", "F"],
  ["CCCc1ccc(C(=O)O)cc1", "F"],
  ["CCC(=O)NS(=O)(=O)c1ccc(-c2c(-c3ccccc3)noc2C)cc1", "F"],
  ["Cc1cc(C(=O)NNCc2ccccc2)no1", "F"],
  ["C[C@H]1[C@@H](OC(=O)CCC(=O)O)O[C@@H]2OC3(C)CC[C@H]4[C@H](C)CC[C@@H]1[C@@]24OO3", "T"],
  ["O=C[C@H](O)[C@@H](O)[C@H](O[C@H]1O[C@H](CO)[C@@H](O[C@H]2O[C@H](CO)[C@@H](O)[C@H](O)[C@H]2O)[C@H](O)[C@H]1O)[C@H](O)CO", "F"],
  ["COc1ccc(C[C@H](N)C(=O)N[C@H]2[C@@H](O)[C@H](n3cnc4c(N(C)C)ncnc43)O[C@@H]2CO)cc1", "T"],
  ["C=C[C@]1(C)C[C@@H](OC(=O)CO)[C@]2(C)[C@H](C)CC[C@]3(CCC(=O)[C@H]32)[C@@H](C)[C@@H]1O", "F"],
  ["CC1(C)S[C@@H]2[C@H](NC(=O)[C@H](NC(=O)N3CCN(S(C)(=O)=O)C3=O)c3ccccc3)C(=O)N2[C@H]1C(=O)O", "F"],
  ["CN1CCN(C2=Nc3ccccc3Cc3ccccc32)CC1", "F"],
  ["CCCCCCCCCCCCCCCCCC(=O)OCCO", "F"],
  ["C#C[C@]1(O)CC[C@H]2[C@@H]3CCC4=CCCC[C@@H]4[C@H]3C(=C)C[C@@]21CC", "F"]
]}
